# test-protocol: self-splicing fitness, log relative to wild type (ln ratio); higher = more splicing; Tetrahymena group I intron in knt gene, E. coli kanamycin selection, DiMSum; sequences stand for … in CUCUCU…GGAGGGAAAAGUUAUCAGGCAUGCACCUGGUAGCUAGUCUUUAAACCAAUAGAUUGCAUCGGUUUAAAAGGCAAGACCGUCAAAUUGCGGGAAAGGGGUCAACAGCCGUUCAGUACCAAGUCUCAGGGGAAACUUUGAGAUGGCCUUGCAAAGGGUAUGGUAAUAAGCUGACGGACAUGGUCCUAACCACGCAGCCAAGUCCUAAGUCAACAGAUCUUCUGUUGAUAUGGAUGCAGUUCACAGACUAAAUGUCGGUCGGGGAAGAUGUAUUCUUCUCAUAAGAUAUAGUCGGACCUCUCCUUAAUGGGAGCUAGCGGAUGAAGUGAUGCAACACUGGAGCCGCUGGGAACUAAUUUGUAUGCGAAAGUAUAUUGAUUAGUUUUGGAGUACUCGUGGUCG;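 further: selection with 25 µg/mL kanamycin versus none on LB agar overnight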
# details: 37 °C
I would appreciate it if you labelled entries T when self-splicing fitness (ln) is -1 or higher, otherwise F.

Determine whether this sequence has self-splicing fitness (ln) no lower than -1: AGGAAGCAAUAUUACGUACG
T

Could you please find out whether GCGAAGCAAUAUUACGUAAC has self-splicing fitness (ln) that meets -1 or exceeds it?
F

Please tell me: is the sequence CUGGAGCAAUAUUACGGGCU at or over -1 in terms of self-splicing fitness (ln)?
F

Identify whether the reported self-splicing fitness (ln) of the following sequence is -1 or greater: CAUAAGCAAUAUUACGAGCA
F

Record CUCGAGCAAUAUUACGCUAG ; criterion: self-splicing fitness (ln) no lower than -1. Met?
F

Given the entry GUUAAGCAAUAUUACGUCAA , answer whether its self-splicing fitness (ln) meets or surpasses -1.
F

Say whether UUGAAGCAAUAUUACGAAUA shows self-splicing fitness (ln) of -1 or more.
F

Is self-splicing fitness (ln) for GUUAAGCAAUAUUACGCUGC at or above -1?
F

State whether the measured self-splicing fitness (ln) reaches -1, counting equality as reaching it, for GUUAAGCAAUAUUACGACGA
F

Given the entry UCGAAGCAAUAUUACGAUCA , answer whether its self-splicing fitness (ln) meets or surpasses -1.
T

Could you tell me if the measured self-splicing fitness (ln) of UCCUAGCAAUAUUACGCACG reaches -1 or more?
F

Does the reported self-splicing fitness (ln) for AAAGAGCAAUAUUACGAUAU fall at or above the -1 mark?
F

Quick check, self-splicing fitness (ln) >= -1? CUUGAGCAAUAUUACGAGAU
T

Textbook exercise: given the entry AGCCAGCAAUAUUACGGGUA , state whether its self-splicing fitness (ln) is greater than or equal to -1.
F

State whether the measured self-splicing fitness (ln) reaches -1, counting equality as reaching it, for GCUUAGCAAUAUUACGUUCC
T

Does the reported self-splicing fitness (ln) for GUCGAGCAAUAUUACGAAAC fall at or above the -1 mark?
T

Entry GCACAGCAAUAUUACGCUUA : is its self-splicing fitness (ln) no less than -1?
T

Reported self-splicing fitness (ln) at or above -1? CGGUAGCAAUAUUACGUCCA
T

Is the recorded value of self-splicing fitness (ln) equal to or greater than -1 for this sequence? UCCCAGCAAUAUUACGUCGG
F

Please check the record CUCCAGCAAUAUUACGUAGU and state if its self-splicing fitness (ln) is at or above -1.
F

Say whether UGUCAGCAAUAUUACGCUCA shows self-splicing fitness (ln) of -1 or more.
T

Could you please find out whether GUUUAGCAAUAUUACGCUAU has self-splicing fitness (ln) that meets -1 or exceeds it?
F

Could you verify whether the entry UACGAGCAAUAUUACGCCUG shows self-splicing fitness (ln) of no less than -1?
T

Hi, just wondering whether AAUUAGCAAUAUUACGUAGG shows self-splicing fitness (ln) of -1 or higher.
F

Identify whether the reported self-splicing fitness (ln) of the following sequence is -1 or greater: GACCAGCAAUAUUACGACCG
T

Hi, just wondering whether GCCGAGCAAUAUUACGCGAG shows self-splicing fitness (ln) of -1 or higher.
F

Is reported self-splicing fitness (ln) greater than or equal to -1 here: UAUAAGCAAUAUUACGCACU
T

# check: self-splicing fitness (ln) of AUGGAGCAAUAUUACGUCAA is greater than or equal to -1
T

Confirm if self-splicing fitness (ln) reported for the sequence UGCGAGCAAUAUUACGUCGA is -1 or above.
F

Could you please find out whether UAAAAGCAAUAUUACGCAAA has self-splicing fitness (ln) that meets -1 or exceeds it?
T

Given the entry CAAGAGCAAUAUUACGGCUU , answer whether its self-splicing fitness (ln) meets or surpasses -1.
F

Answer whether self-splicing fitness (ln) of UUAAAGCAAUAUUACGGGCA is greater than or equal to -1.
T

Given the entry ACGGAGCAAUAUUACGUAGA , answer whether its self-splicing fitness (ln) meets or surpasses -1.
F

Quick check: does CGGGAGCAAUAUUACGGCGU have self-splicing fitness (ln) greater than or equal to -1?
F

Confirm if self-splicing fitness (ln) reported for the sequence ACUCAGCAAUAUUACGAAUA is -1 or above.
T

Identify whether the reported self-splicing fitness (ln) of the following sequence is -1 or greater: GAGUAGCAAUAUUACGCCGU
F

Given the entry GGUCAGCAAUAUUACGCGCA , answer whether its self-splicing fitness (ln) meets or surpasses -1.
T

Say whether UGAUAGCAAUAUUACGGGAC shows self-splicing fitness (ln) of -1 or more.
F

Kindly determine if self-splicing fitness (ln) recorded for CAGAAGCAAUAUUACGUAAU is above or exactly -1.
F

Is self-splicing fitness (ln) for UGCUAGCAAUAUUACGAAAC at or above -1?
F

Would you say GAUUAGCAAUAUUACGUGUA shows self-splicing fitness (ln) at minimum -1?
F

Reported self-splicing fitness (ln) at or above -1? CUCUAGCAAUAUUACGUCUA
F

# check: self-splicing fitness (ln) of CCUAAGCAAUAUUACGUCUA is greater than or equal to -1
F

Exam item: decide whether the reported self-splicing fitness (ln) for CUGUAGCAAUAUUACGGCUG is at least -1.
T

Decide: is the reported value of self-splicing fitness (ln) for CCUUAGCAAUAUUACGUAGU equal to or greater than -1?
T

Could you tell me if the measured self-splicing fitness (ln) of GCCCAGCAAUAUUACGGAAA reaches -1 or more?
T

Evaluate GUACAGCAAUAUUACGUCCG : self-splicing fitness (ln) at minimum -1?
F

Exam item: decide whether the reported self-splicing fitness (ln) for AAUGAGCAAUAUUACGUAAU is at least -1.
F

Could you please find out whether GCCCAGCAAUAUUACGCUUG has self-splicing fitness (ln) that meets -1 or exceeds it?
F

Kindly determine if self-splicing fitness (ln) recorded for UGACAGCAAUAUUACGCCAU is above or exactly -1.
F

Form field: self-splicing fitness (ln) at least -1? Entry: CGUGAGCAAUAUUACGAGAC
T

----------
# test-protocol: self-splicing fitness, log relative to wild type (ln ratio); higher = more splicing; Tetrahymena group I intron in knt gene, E. coli kanamycin selection, DiMSum; sequences stand for … in CUCUCU…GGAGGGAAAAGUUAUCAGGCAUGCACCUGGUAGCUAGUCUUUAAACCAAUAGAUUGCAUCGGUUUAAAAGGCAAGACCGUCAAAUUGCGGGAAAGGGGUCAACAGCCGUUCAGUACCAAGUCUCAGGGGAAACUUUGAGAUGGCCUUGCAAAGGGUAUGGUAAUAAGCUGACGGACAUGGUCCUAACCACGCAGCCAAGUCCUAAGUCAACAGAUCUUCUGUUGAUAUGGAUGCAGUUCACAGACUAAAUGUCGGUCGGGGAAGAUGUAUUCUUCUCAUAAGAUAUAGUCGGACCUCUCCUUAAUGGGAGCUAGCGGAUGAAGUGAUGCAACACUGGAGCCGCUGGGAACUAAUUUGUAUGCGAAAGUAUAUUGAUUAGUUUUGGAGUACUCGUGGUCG
# details: 30 °C
For each of the sequences below, state its self-splicing fitness (ln).
Give the value as a plain number.

Please report the recorded self-splicing fitness (ln) for CUGUAGCAAUAUUACGAACA .
-2

Dear colleague, I am looking for the recorded self-splicing fitness (ln) of the following sequence: AGCCAGCAAUAUUACGGCAG
-1.01

GET /values?readout=self-splicing fitness (ln)&item= CGACAGCAAUAUUACGGGAG
-3.21

Looking for the measured self-splicing fitness (ln) of ACCGAGCAAUAUUACGCCCA , can you help?
-1.68

Which self-splicing fitness (ln) value is on record for CAGUAGCAAUAUUACGCGUG ?
-2.65

Any idea what self-splicing fitness (ln) was measured for CCCAAGCAAUAUUACGCCCA ?
-2.33

May I ask what self-splicing fitness (ln) has been recorded for CCAGAGCAAUAUUACGCUUG ?
-3.27

Data request, read-out self-splicing fitness (ln), for AUCAAGCAAUAUUACGCCGA
-1.02

Request the reported self-splicing fitness (ln) associated with GCACAGCAAUAUUACGUAGA
-0.215

Entry UGUAAGCAAUAUUACGAACA : reported self-splicing fitness (ln) = ?
-0.358

Consider the sequence shown here: UUUCAGCAAUAUUACGGUGU What is its recorded self-splicing fitness (ln)?
-2.91

May I ask what self-splicing fitness (ln) has been recorded for CGUGAGCAAUAUUACGGAGU ?
-3.12

Would you mind telling me what self-splicing fitness (ln) value was observed for GGUCAGCAAUAUUACGGAUC ?
-2.95

Entry GUUUAGCAAUAUUACGCACC : reported self-splicing fitness (ln) = ?
-1.95

For UUUAAGCAAUAUUACGCCCU , what is its reported self-splicing fitness (ln)?
-0.119

Look up self-splicing fitness (ln): ACGAAGCAAUAUUACGAUUU
-1.28

Find the recorded self-splicing fitness (ln) belonging to AAUGAGCAAUAUUACGAAUA and report it.
-3.37

# lookup: self-splicing fitness (ln) of CAGAAGCAAUAUUACGAUGG
-0.534

Field request: self-splicing fitness (ln) | item: AAUUAGCAAUAUUACGAGGC
-2.7

Field request: self-splicing fitness (ln) | item: GGUCAGCAAUAUUACGCCAU
-3.36

For the sequence shown here, UAGUAGCAAUAUUACGAGCG , give the reported self-splicing fitness (ln).
-0.586

Would you mind telling me what self-splicing fitness (ln) value was observed for GCCUAGCAAUAUUACGUUCA ?
-1.37

For UACGAGCAAUAUUACGGUUU , what is its reported self-splicing fitness (ln)?
-3.06

I would be grateful if you could share the reported self-splicing fitness (ln) for UAGAAGCAAUAUUACGCAAC .
-1.44

Entry under review: CAGAAGCAAUAUUACGUUUU . Reported self-splicing fitness (ln)?
-3.33
